test system: MCF7 breast; assay: NCI-60 one-dose screen, 48 h; conditions: 10 µM unless noted
The panel holds about 83,000 compounds, 20% with a hit somewhere; the sample as a whole holds those more often. The source made the active and inactive calls. How the source made its calls: active means growth percent below 10; inactive means the rest.
Select the correct class. Options are active, inactive and nothing else.

Each molecule tested received a call. Report the one for Cc1ccc(-c2cc(-c3ccc(N(C)C)cc3)n3c(n2)nc2ccccc23)cc1 . inactive

Each molecule tested received a call. Report the one for CCC(C)[C@H]1OC(=O)[C@H](C(C)C)N(C)C(=O)[C@@H](C(C)C)OC(=O)[C@H](C(C)C)N(C)C(=O)[C@@H](C(C)CC)OC(=O)[C@H](C(C)C)N(C)C1=O (some centres undefined) . active

Each molecule tested received a call. Report the one for Cc1ccc(C2CC(c3ccc(Nc4nc(NCCO)nc(Nc5ccc(Cl)cc5)n4)cc3)=Nc3c(N)nc(N)nc3N2)cc1 (centres undefined) . active

Each molecule tested received a call. Report the one for COc1ccc(-c2cc(-c3ccc(Cl)cc3)nc3nc(N)nn23)cc1 . inactive

----------
test system: MALME-3M melanoma; assay: NCI-60 one-dose screen, 48 h (100 = growth as untreated, 0 = no growth, -100 = all killed); conditions: 10 µM unless noted
This is part of a sample that, as a whole, favours compounds with a hit. Of some 83,000 tested, about 20% had one in any assay.
For each of the molecules below, state its growth.
Kindly answer with a numeric value in %, unit omitted.

growth measured on Cn1cc(-c2nn3cc(-c4cccnc4)nc3s2)c2cc(F)ccc21 = 70.3

growth measured on Nc1c(C(=O)c2ccccc2)sc2nc(-c3cnccn3)cc(-c3cccs3)c12 = 104

growth measured on Cc1nc(-c2cc3ccccc3c(N3CCN(C)CC3)n2)cs1 = 96.5

growth measured on CCC(CC)n1c(=O)c(SC2=NC3C(NN2)N(CC)C(=O)N3CC)c(C(=O)O)c2ccccc21 (stereo not given) = 68.1

growth measured on C=CCn1c(SCC(=O)Nc2cccc(C(=O)/C=C/c3ccc(C)cc3)c2)nc2ccccc2c1=O = 106

growth measured on Cc1nn(-c2ccccc2)cc1/C=N/Nc1nc(Nc2ccccc2)nc(Nc2ccc(S(N)(=O)=O)cc2)n1 = -25.6

growth measured on C/C(=N\NC(=S)Nc1ccc(Br)cc1)c1cc2ccccc2oc1=O = 24

growth measured on CN1C(=O)N(C)C2C1NN=c1s/c(=C\c3ccccn3)c(=O)n12 (stereo not given) = 92.7

growth measured on CS(=O)c1nccc(-c2c(-c3ccc(F)c(OCCc4ccc(F)cc4)c3)nc3sccn23)n1 (stereo not given) = 55.6

growth measured on COc1ccc2c(c1)c(-c1nnc(N)nc1-c1cn(C)c3ccccc13)cn2C = 85.6

----------
tested on: NCI-H23 lung; experiment: NCI-60 one-dose screen, 48 h; conditions: 10 µM unless noted
The panel holds about 83,000 compounds, 20% with a hit somewhere; the sample as a whole holds those more often. Calls of active or inactive are those of the source. Rule for the calls: active = growth percent below 10; inactive = the rest.
Select the correct class. Options are T (active), F (inactive) and nothing else.

Each molecule tested received a call. Report the one for CC(=O)NC(C)(C)C(=O)N[C@@H](C)C(=O)NC(C)(C)C(=O)N[C@@H](C)C(=O)NC(C)(C)C(=O)N[C@@H](C)C(=O)N[C@@H](CCC(N)=O)C(=O)NC(C)(C)C(=O)N[C@H](C(=O)NC(C)(C)C(=O)NCC(=O)N[C@@H](CC(C)C)C(=O)NC(C)(C)C(=O)N1CCC[C@H]1C(=O)N[C@H](C(=O)NC(C)(C)C(=O)NC(C)(C)C(=O)N[C@@H](CCC(N)=O)C(=O)N[C@@H](CCC(N)=O)C(=O)N[C@H](CO)CC1CCCCC1)C(C)C)C(C)C . F

Each molecule tested received a call. Report the one for O=C(CCCCCCN1CC(=O)N2[C@@H](c3ccc(Cl)c(F)c3)c3[nH]c4ccccc4c3C[C@H]2C1=O)NO . F

Each molecule tested received a call. Report the one for CC(C)=CCc1c2c(c(O)c3c1O[C@]14C(=C[C@@H]5C[C@H]1C(C)(C)O[C@@]4(C/C=C(/C)C(=O)O)C5=O)C3=O)CC(O)C(C)(C)O2 (stereo not given in full) . T

Each molecule tested received a call. Report the one for COc1ccc2oc3c4[nH]c5ccccc5c4c4c(c3c2c1)C(=O)N(O)C4=O . F

Each molecule tested received a call. Report the one for N#C/C(=C\c1ccc(Cl)cc1Cl)C(N)=O . F

----------
system: IGROV1 ovarian; assay: NCI-60 one-dose screen, 48 h (100 = growth as untreated, 0 = no growth, -100 = all killed); settings: 10 µM unless noted
This is part of a sample that, as a whole, favours compounds with a hit. Of some 83,000 tested, about 20% had one in any assay.
Think of 70% as a floor: if growth stands on it or above, it is Criterion met; beneath it, Criterion not met.

I'd appreciate it if you could say whether CCCC(=O)NC(c1cccnc1)c1cc(Cl)c2cccnc2c1O (stereo not given) has growth at least equal to 70%. Criterion not met

I'd appreciate it if you could say whether Oc1ccc(-c2nnc(SCc3ccc(O)c4ncccc34)o2)cc1 has growth at least equal to 70%. Criterion not met

I'd appreciate it if you could say whether C=CCn1c(SCC(=O)Nc2cccc(C(=O)/C=C/c3ccccc3)c2)nc2ccccc2c1=O has growth at least equal to 70%. Criterion met

I'd appreciate it if you could say whether COc1cc2c3c(n(CCCN4CCCCC4)c(=O)c2cc1OC)-c1cc2c(cc1C3=O)OCO2 has growth at least equal to 70%. Criterion not met

I'd appreciate it if you could say whether COc1ccc(-c2nc3cc(Cl)c(Cl)cc3n2CC(=O)N=Nc2c(O)[nH]c3ccc(Br)cc23)cc1 has growth at least equal to 70%. Criterion not met

I'd appreciate it if you could say whether CCOC(=O)CC(=O)CSC1=NC2C(NN1)N(C)C(=O)N2C (stereo not given) has growth at least equal to 70%. Criterion met

I'd appreciate it if you could say whether NS(=O)(=O)Oc1ccc2nc(Nc3ccc(F)c(F)c3)ccc2c1 has growth at least equal to 70%. Criterion met

I'd appreciate it if you could say whether CC1CCc2c(sc3nc(SCC(=O)N/N=C/c4cccc(O)c4O)n(-c4ccccc4)c(=O)c23)C1 (stereo not given) has growth at least equal to 70%. Criterion met

I'd appreciate it if you could say whether NS(=O)(=O)c1ccc(Nc2nc(N/N=C/c3ccc(C(F)(F)F)cc3)nc(Nc3ccccc3)n2)cc1 has growth at least equal to 70%. Criterion not met

I'd appreciate it if you could say whether CC[C@]12C=CCN3CC[C@]4(C(=C(C(=O)OC)C1)Nc1cc5c(cc14)[C@@H]1[C@H](O5)[C@@H](O)[C@@]4(CC)CC(C(=O)OC)=C5Nc6cc(OC)ccc6[C@@]56CCN1[C@@H]46)[C@@H]32 has growth at least equal to 70%. Criterion not met

I'd appreciate it if you could say whether Cc1ccc(/C=C/CC(=O)Nc2ccc(C(=O)Nc3ccc(F)cc3N)nc2)cn1 has growth at least equal to 70%. Criterion not met

I'd appreciate it if you could say whether Cc1cnc2nc(NN)[nH]n12 has growth at least equal to 70%. Criterion met

I'd appreciate it if you could say whether CC[C@H](C)[C@H]1NC(=O)[C@@H]([C@H](O)C(C)C)NC(=O)[C@@H](C)N(C)C(=O)[C@H](C)N(C)C(=O)[C@H](CC(C)C)NC(=O)[C@H](CC(C)C)N(C)C(=O)[C@H](C)N(C)C1=O has growth at least equal to 70%. Criterion not met

I'd appreciate it if you could say whether CCN1C(=O)N(CC)C2C1NN=C1SC(c3ccccc3)=CC(=O)N12 (stereo not given) has growth at least equal to 70%. Criterion not met

I'd appreciate it if you could say whether CCOC(=O)/C(F)=C/C1CC1C1CCCCC1 (stereo not given) has growth at least equal to 70%. Criterion met

I'd appreciate it if you could say whether CCCCSc1nnc(-c2ccc(-c3ccc(Cl)cc3)nc2C)o1 has growth at least equal to 70%. Criterion met

I'd appreciate it if you could say whether C(=C(\C1=NCCN1)n1cnc2ccccc21)/c1ccc2ccccc2c1 has growth at least equal to 70%. Criterion met

I'd appreciate it if you could say whether C#C[C@]1(O)CC[C@H]2[C@@H]3CC=C4c5sc(Nc6nc(C)cc(OC)n6)nc5CC[C@]4(C)[C@H]3CC[C@@]21C has growth at least equal to 70%. Criterion not met

I'd appreciate it if you could say whether C/C(=N\NC(=S)Nc1ccc(Br)cc1)c1cc2ccccc2oc1=O has growth at least equal to 70%. Criterion not met

I'd appreciate it if you could say whether CC1CCN(S(=O)(=O)c2ncsc2-c2ccccc2)CC1 has growth at least equal to 70%. Criterion met

I'd appreciate it if you could say whether O=C1NC(=O)/C(=C/c2ccc(OCc3cc4ccccc4nc3Cl)cc2)S1 has growth at least equal to 70%. Criterion met

I'd appreciate it if you could say whether Clc1ccccc1/C=C/c1nn2c(-c3ccncc3)nnc2s1 has growth at least equal to 70%. Criterion met

I'd appreciate it if you could say whether Cc1nn(-c2ccc(Cl)cc2)c(C)c1N=Nc1ccc2oc(=O)ccc2c1 has growth at least equal to 70%. Criterion met

I'd appreciate it if you could say whether CN1CCN(c2ccc(C(=O)/C=C/c3ccc(Cl)c(C(F)(F)F)c3)cc2)CC1 has growth at least equal to 70%. Criterion met

I'd appreciate it if you could say whether Cc1ccc(NC(=O)c2cc(/C=C/C(=O)NO)cc(C(F)(F)F)c2)cc1Nc1nccc(-c2cccnc2)n1 has growth at least equal to 70%. Criterion not met

I'd appreciate it if you could say whether CS(=O)(=O)c1ccc(-c2nn(-c3ccccc3)cc2/C=C/C(=O)c2ccc(Br)cc2)cc1 has growth at least equal to 70%. Criterion met

I'd appreciate it if you could say whether O=C(O)CNS(=O)(=O)c1ccc(Oc2ccc(S(=O)(=O)NCC(=O)O)cc2)cc1 has growth at least equal to 70%. Criterion met

I'd appreciate it if you could say whether C[C@@H]1C[C@H]2C(=O)OCC(NC(=O)[C@H](Cc3cc(F)cc(F)c3)NC(=O)Nc3ccc(Cl)cc3F)C(=O)N3CCC[C@H]3C(=O)N3CCCC[C@H]3C(=O)N[C@@H](C)C(=O)N2C1 (stereo not given in full) has growth at least equal to 70%. Criterion not met

I'd appreciate it if you could say whether C#C[C@]1(O)CC[C@H]2[C@@H]3CC=C4c5sc(Nc6ccc(OC)nc6)nc5CC[C@]4(C)[C@H]3CC[C@@]21C has growth at least equal to 70%. Criterion not met

I'd appreciate it if you could say whether C=CCn1c(SCC(=O)Nc2cccc(C(=O)/C=C/c3ccc(C)cc3)c2)nc2ccccc2c1=O has growth at least equal to 70%. Criterion met

I'd appreciate it if you could say whether Nc1c(C(=O)c2ccccc2)sc2nc(-c3cnccn3)cc(-c3cccs3)c12 has growth at least equal to 70%. Criterion met

I'd appreciate it if you could say whether Cn1nc(Nc2ccccc2)c(C(=O)NN)c1N has growth at least equal to 70%. Criterion met

I'd appreciate it if you could say whether COc1cc(/C=C2\SC(=O)NC2=O)ccc1OCC(=O)Nc1ccc(C(=O)/C=C/c2cc3ccccc3nc2Cl)cc1 has growth at least equal to 70%. Criterion met

I'd appreciate it if you could say whether CCc1ccc(NC(=O)N[C@@H](Cc2cccc(F)c2)C(=O)N[C@@H]2C(=O)N3CCC[C@H]3C(=O)N3CCCC[C@H]3C(=O)N[C@@H](CO)C(=O)N3C[C@H](C)C[C@H]3C(=O)O[C@H]2C)c(F)c1 has growth at least equal to 70%. Criterion not met

Taken from PubChem BioAssay (NCI).
